# α-glucosidase (sucrase) (Rattus norvegicus, UniProt P23739): pIC50 values follow
# Sequence (P23739 whole entry): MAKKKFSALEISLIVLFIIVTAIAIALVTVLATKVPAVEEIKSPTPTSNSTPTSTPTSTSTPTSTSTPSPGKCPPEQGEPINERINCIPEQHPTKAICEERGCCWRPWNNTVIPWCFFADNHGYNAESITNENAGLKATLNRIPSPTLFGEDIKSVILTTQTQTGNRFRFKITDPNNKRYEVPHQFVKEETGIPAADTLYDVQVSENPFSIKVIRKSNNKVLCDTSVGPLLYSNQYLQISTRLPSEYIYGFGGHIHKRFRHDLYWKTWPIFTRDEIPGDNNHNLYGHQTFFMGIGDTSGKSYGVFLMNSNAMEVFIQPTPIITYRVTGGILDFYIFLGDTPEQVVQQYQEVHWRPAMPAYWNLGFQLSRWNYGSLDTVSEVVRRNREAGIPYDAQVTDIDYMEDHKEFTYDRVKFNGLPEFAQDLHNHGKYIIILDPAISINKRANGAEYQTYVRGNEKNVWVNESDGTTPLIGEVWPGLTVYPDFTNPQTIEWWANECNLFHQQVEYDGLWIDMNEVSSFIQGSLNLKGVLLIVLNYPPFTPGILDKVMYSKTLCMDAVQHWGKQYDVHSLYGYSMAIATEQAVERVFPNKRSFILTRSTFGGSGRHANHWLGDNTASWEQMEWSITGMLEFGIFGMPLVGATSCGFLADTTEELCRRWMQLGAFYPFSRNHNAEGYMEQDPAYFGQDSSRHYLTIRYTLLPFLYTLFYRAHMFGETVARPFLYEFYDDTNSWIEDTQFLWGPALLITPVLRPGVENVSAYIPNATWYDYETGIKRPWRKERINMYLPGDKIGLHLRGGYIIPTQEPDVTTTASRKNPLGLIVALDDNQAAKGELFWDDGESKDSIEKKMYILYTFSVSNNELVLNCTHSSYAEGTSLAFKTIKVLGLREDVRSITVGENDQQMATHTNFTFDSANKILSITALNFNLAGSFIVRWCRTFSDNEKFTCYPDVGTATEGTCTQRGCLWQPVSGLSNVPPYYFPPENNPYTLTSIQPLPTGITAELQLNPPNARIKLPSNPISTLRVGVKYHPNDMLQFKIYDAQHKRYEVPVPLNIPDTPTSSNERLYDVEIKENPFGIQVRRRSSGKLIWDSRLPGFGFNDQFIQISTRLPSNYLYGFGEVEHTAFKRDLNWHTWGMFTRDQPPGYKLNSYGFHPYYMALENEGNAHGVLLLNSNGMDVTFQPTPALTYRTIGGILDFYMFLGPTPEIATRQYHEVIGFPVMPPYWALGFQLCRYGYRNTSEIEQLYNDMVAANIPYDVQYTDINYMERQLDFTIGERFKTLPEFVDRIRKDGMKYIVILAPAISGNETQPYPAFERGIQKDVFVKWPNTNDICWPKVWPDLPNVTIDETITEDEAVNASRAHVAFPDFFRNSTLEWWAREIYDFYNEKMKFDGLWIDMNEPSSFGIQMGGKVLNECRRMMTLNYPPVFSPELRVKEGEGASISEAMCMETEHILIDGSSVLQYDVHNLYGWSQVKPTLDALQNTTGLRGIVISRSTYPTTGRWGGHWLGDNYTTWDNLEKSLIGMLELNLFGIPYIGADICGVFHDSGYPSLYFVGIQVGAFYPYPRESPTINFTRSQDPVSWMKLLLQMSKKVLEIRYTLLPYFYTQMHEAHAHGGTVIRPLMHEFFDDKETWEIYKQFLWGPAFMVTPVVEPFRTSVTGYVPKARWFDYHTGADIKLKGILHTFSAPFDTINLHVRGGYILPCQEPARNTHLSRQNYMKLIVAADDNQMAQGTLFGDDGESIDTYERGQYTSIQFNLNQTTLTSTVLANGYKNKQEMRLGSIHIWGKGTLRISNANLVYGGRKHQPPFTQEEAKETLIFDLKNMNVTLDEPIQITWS
pIC50: −log10 of the molar value.
Test readout: pIC50

O=S(=O)([O-])OC(C(O)C[S+]1CC(O)C(O)C1CO)C(O)C(O)CO (stereo not drawn)	6.02
O=S(=O)([O-])O[C@H](CO)[C@@H](O)C[S+]1C[C@H](O)[C@@H](O)[C@@H]1CO (stereo partly drawn)	5.62
O=S(=O)([O-])OC(C(O)C[S+]1CC(O)C(O)C1CO)C(O)C(O)C(O)CO (stereo not drawn)	6.37
